# β-Galactosidase Activity, Cultured Without ATC per record follows
test system: tet operator sequence; assay: β-galactosidase activity of a tetracycline-regulated promoter in transformed E. coli with revTetR, in the presence and absence of anhydrotetracycline (atc); type: cell-based, Escherichia coli; settings: RevTetR isolate cultured in the absence of anhydrotetracycline (ATC)
Answer field: number only, no words.

**Query** Name the reported β-Galactosidase Activity, Cultured Without ATC value associated with the molecule TetRrev6-13: revTetR(BD) G96R L101I (protein, Modified tetracycline repressor, revTetR(BD) G96R L101I) MSRLDKSKVINSALELLNEVGIEGLTTRKLAQKLGVEQPTLYWHVKNKRALLDALAVEILARHHDYSLPAAGESWQSFLRNNAMSFRRALLRYRDRAKVHIGTRPDEKQYDTVETQLRFMTENGFSLRDGLYAISAVSHFTLGAVLEQQEHTAALTDRPAAPDENLPPLLREALQIMDSDDGEQAFLHGLESLIRGFEVQLTALLQIV
**Result** 15.7835

**Query** Which β-Galactosidase Activity, Cultured Without ATC reading was recorded for the molecule TetRrevAtc4-1: revTetR(BD) A50S D53F A56G V57I H63Q (protein, Modified tetracycline repressor, revTetR(BD) A50S D53F A56G V57I H63Q) MSRLDKSKVINSALELLNEVGIEGLTTRKLAQKLGVEQPTLYWHVKNKRSLLFALGIEILARQHDYSLPAAGESWQSFLRNNAMSFRRALLRYRDGAKVHLGTRPDEKQYDTVETQLRFMTENGFSLRDGLYAISAVSHFTLGAVLEQQEHTAALTDRPAAPDENLPPLLREALQIMDSDDGEQAFLHGLESLIRGFEVQLTALLQIV ?
**Result** 100.076
